target.under.test: CYP26 (Homo sapiens)
Construct: LNCaP cells were incubated with 1 μM ATRA for 24 h to induce the CYP26 enzyme; endogenous in cells; host or cells: LNCaP human prostate cancer cells, pre-treated with 1 μM ATRA
Sequence (O43174 whole entry): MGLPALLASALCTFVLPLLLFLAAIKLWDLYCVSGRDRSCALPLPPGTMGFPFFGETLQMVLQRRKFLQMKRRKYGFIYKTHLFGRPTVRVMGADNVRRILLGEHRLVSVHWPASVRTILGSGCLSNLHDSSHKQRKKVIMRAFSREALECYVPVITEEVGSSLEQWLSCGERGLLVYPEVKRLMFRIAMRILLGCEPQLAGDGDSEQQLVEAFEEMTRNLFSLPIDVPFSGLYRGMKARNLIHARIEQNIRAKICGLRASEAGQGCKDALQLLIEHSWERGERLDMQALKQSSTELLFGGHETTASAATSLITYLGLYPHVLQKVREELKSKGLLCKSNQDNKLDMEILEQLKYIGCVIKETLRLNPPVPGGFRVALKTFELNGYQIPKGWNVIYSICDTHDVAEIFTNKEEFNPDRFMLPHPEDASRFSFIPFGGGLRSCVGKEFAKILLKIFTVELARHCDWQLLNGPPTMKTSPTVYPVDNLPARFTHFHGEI
assay.method.text: Cellular microsomal CYP26 assay (ATRA metabolism of microsomes prepared from T47D cells)
Assay type: biochemical
settings: microsomes; read-out: IC50, inhibition of ATRA metabolism of microsomes prepared from T47D cells previously exposed to ATRA
attribute.measured: IC50

Supply recorded IC50 for CC1=C(/C=C/C(C)=C/C=C/C(C)=C/C(=O)n2ccnc2)C(C)(C)CCC1n1ccnc1 (stereo not shown) [VN/50-1] here.
7 nM
